Reference source: patent US9510598B2

# Format: physicochemical
# condition info: method [a]: HPLC/LC-MS on reversed phase at pH 2.7, 0.1% formic acid in water / acetonitrile, gradient 10% to 95% acetonitrile
log P values for the compounds below.

# example entries with known answers
[[record]]
compound = "C#Cc1cnc2ccc(C3=NOC(C)(C(=O)NC(C)CCC(C)C)C3)cc2c1 (racemic)"
experimental_value = "3.73[a]"

[[record]]
compound = "COCC(C)NC(=O)C1(C)CC(c2ccc3ncc(Br)cc3c2)=NO1 (racemic)"
experimental_value = "2.54[a]"

[[record]]
compound = "CCn1cc(CNC(=O)C2(C)CC(c3ccc4nc(Cl)c(I)cc4c3)=NO2)c(C)n1 (racemic)"
experimental_value = "2.94[a]"


Please find the next compound below.
## Input Reported log P for COC1(C(=O)NCC2COC(C)(C)O2)CC(c2ccc3ncc(Br)cc3c2)=NO1 (centres unmarked) : what is it?
## Output 2.62[a]

---

# Test system: Septoria tritici
# experimental protocol: In vivo preventive test on Septoria tritici (leaf spot on wheat)
# condition info: 500 ppm; wheat plants sprayed 24 hours before contamination; grading 21 to 28 days after contamination vs control plants
observation type: % of efficacy (protection) (%)
// note: answer is a bare numeric in %

// solved cases for % of efficacy (protection) follow
[[record]]
molecule = "CC(C)NC(=O)C1(CF)CC(c2ccc3ncc(Br)cc3c2)=NO1 (centres unmarked) [compound 76]"
study_target = "Septoria tritici"
observation_type = "% of efficacy (protection)"
result_units = "%"
experimental_value = 75

[[record]]
molecule = "Cc1cc(NC(=O)C2(C)CC(c3cc4cc(Br)cnc4c(F)c3F)=NO2)n(C)n1 (centres unmarked) [compound 18]"
study_target = "Septoria tritici"
observation_type = "% of efficacy (protection)"
result_units = "%"
experimental_value = 93

[[record]]
molecule = "CC1(C(=O)NCc2cn[nH]c2-c2cccs2)CC(c2ccc3ncc(Br)cc3c2)=NO1 (centres unmarked) [compound 191]"
study_target = "Septoria tritici"
observation_type = "% of efficacy (protection)"
result_units = "%"
experimental_value = 71

[[record]]
molecule = "CCC1(C(=O)NC2CCC2)CC(c2ccc3ncc(Br)cc3c2)=NO1 (centres unmarked) [compound 498]"
study_target = "Septoria tritici"
observation_type = "% of efficacy (protection)"
result_units = "%"
experimental_value = 71

[[record]]
molecule = "C#Cc1cnc2ccc(C3=NOC(C)(C(=O)NCc4ccc5ncccc5c4)C3)cc2c1 (centres unmarked) [compound 227]"
study_target = "Septoria tritici"
observation_type = "% of efficacy (protection)"
result_units = "%"
experimental_value = 93


## Input Give the measured % of efficacy (protection) of CC#Cc1cnc2ccc(C3=NOC(C)(C(=O)NC(C)C)C3)cc2c1 (racemic) [compound 381] .
## Output 97

## Input Field request: % of efficacy (protection) | item: CC1(C(=O)NCC(F)(F)F)CC(c2ccc3ncc(Br)cc3c2)=NO1 (centres unmarked) [compound 493]
## Output 97

## Input May I ask what % of efficacy (protection) has been recorded for C#Cc1cnc2ccc(C3=NOC(C)(C(=O)NC(C)C)C3)cc2c1 (centres unmarked) [compound 40] ?
## Output 100

---

Listed here: items and their measured log P.
# Assay type: physicochemical
# condition info: method [a]: HPLC/LC-MS on reversed phase at pH 2.7, 0.1% formic acid in water / acetonitrile, linear gradient 10% to 95% acetonitrile

## Input Would you mind telling me what log P value was observed for CC(C)NC(=O)C1(C)CC(c2ccc3ncccc3c2)=NO1 (centres unmarked) ?
## Output 1.44^[a]

## Input Which log P value is on record for Cc1ccc(CNC(=O)C2(C)CC(c3ccc4ncc(Br)cc4c3)=NO2)n1C (centres unmarked) ?
## Output 3.21^[a]

## Input # lookup: log P of C#Cc1cnc2ccc(C3=NOC(C)(C(=O)NCc4cccs4)C3)cc2c1 (centres unmarked)
## Output 2.73^[a]

## Input Quick one: log P for CCn1nc(C)c(CNC(=O)C2(C)CC(c3ccc4ncc(Br)cc4c3)=NO2)c1C (centres unmarked) ?
## Output 2.32^[a]

## Input For the molecule CC1(C(=O)NCc2nnco2)CC(c2ccc3ncc(Br)cc3c2)=NO1 (centres unmarked) , what log P is on record?
## Output 2.17^[a]

## Input Quick one: log P for CC1(C(=O)NCc2cccc3ccccc23)CC(c2ccc3ncc(Br)cc3c2)=NO1 (centres unmarked) ?
## Output 3.85^[a]

## Input // lookup log P for CC1(C(=O)NCc2ccc(Cl)nc2)CC(c2ccc3ncc(Br)cc3c2)=NO1 (centres unmarked)
## Output 2.73^[a]

## Input Fill in the blank: the reported log P of C#Cc1cnc2ccc(C3=NOC(C)(C(=O)NCC4(C)CCCO4)C3)cc2c1 (centres unmarked) is ____.
## Output 2.42^[a]

---

Measured log P, listed per entry.
# Type: physicochemical
# condition info: method [a]: HPLC/LC-MS on reversed phase at pH 2.7, 0.1% formic acid in water / acetonitrile, linear gradient 10% to 95% acetonitrile

[[record]]
compound = "C#Cc1cnc2ccc(C3=NOC(C)(C(=O)NCC4CCCOC4c4ccccc4)C3)cc2c1 (centres unmarked)"
observation_type = "log P"
experimental_value = "3.11^[a]"

[[record]]
compound = "CCn1cc(CNC(=O)C2(C)CC(c3ccc4ncc(Cl)cc4c3)=NO2)c(C)n1 (centres unmarked)"
observation_type = "log P"
experimental_value = "2.28^[a]"

[[record]]
compound = "C#Cc1cnc2ccc(C3=NOC(C)(C(=O)NCc4ccnc(N5CCCC5)c4)C3)cc2c1 (centres unmarked)"
observation_type = "log P"
experimental_value = "1.42^[a]"


## Input Given C#Cc1cnc2ccc(C3=NOC(C)(C(=O)NCC4CCC(=O)N4C)C3)cc2c1 (centres unmarked) , state its recorded log P.
## Output 1.65^[a]

## Input Give its log P value. Item: CC(C)NC(=O)C1(CCl)CC(c2ccc3ncc(Br)cc3c2)=NO1 (centres unmarked)
## Output 3.01^[a]

## Input // returns reported log P for input CC1(C(=O)NCC2CCOc3ccccc32)CC(c2ccc3ncc(Br)cc3c2)=NO1 (centres unmarked)
## Output 3.48^[a]

## Input Endpoint output: log P of CCCCC1(C(=O)NCc2cn(CC)nc2C)CC(c2ccc3ncc(Br)cc3c2)=NO1 (centres unmarked) . Value?
## Output 3.37^[a]

## Input Data request, read-out log P, for C#Cc1cnc2ccc(C3=NOC(C)(C(=O)NCc4ccc5c(c4)OCC5)C3)cc2c1 (centres unmarked)
## Output 2.82^[a]

---

Quick list: log P per entry.
# Format: physicochemical
# condition info: HPLC on reversed phase columns, method [a]: pH 2.7, 0.1% formic acid in water and acetonitrile, linear gradient 10% to 95% acetonitrile

The cases that follow already have their log P on record.
[[record]]
molecule = "CC1(C(=O)NCc2cccnc2F)CC(c2ccc3ncc(Br)cc3c2)=NO1 (centres unmarked)"
observation_type = "log P"
experimental_value = "2.51[a]"

[[record]]
molecule = "CCc1ccc(CNC(=O)C2(C)CC(c3ccc4ncc(Br)cc4c3)=NO2)nc1 (centres unmarked)"
observation_type = "log P"
experimental_value = "2.05[a]"

[[record]]
molecule = "C#Cc1cnc2ccc(C3=NOC(C)(C(=O)NCc4cnccc4C)C3)cc2c1 (centres unmarked)"
observation_type = "log P"
experimental_value = "1.29[a]"

[[record]]
molecule = "C#Cc1cnc2ccc(C3=NOC(C)(C(=O)NCc4cccnc4O)C3)cc2c1 (centres unmarked)"
observation_type = "log P"
experimental_value = "1.64[a]"

[[record]]
molecule = "C#Cc1cnc2ccc(C3=NOC(C)(C(=O)NCC4CCC4)C3)cc2c1 (centres unmarked)"
observation_type = "log P"
experimental_value = "2.88[a]"

[[record]]
molecule = "C=C(C)CNC(=O)C1(C)CC(c2ccc3ncc(Br)cc3c2)=NO1 (centres unmarked)"
observation_type = "log P"
experimental_value = "2.90[a]"

[[record]]
molecule = "CCn1cc(CNC(=O)C2(C)CC(c3ccc4ncc(Br)cc4c3)=NO2)c(C(F)(F)F)n1 (racemic)"
observation_type = "log P"
experimental_value = "3.13[a]"


Kindly review the next molecule as well.
## Input May I ask what log P has been recorded for CN(C)c1ncccc1CNC(=O)C1(C)CC(c2ccc3ncc(Br)cc3c2)=NO1 (centres unmarked) ?
## Output 1.60[a]

---

# Assay type: physicochemical
# condition info: HPLC on reversed phase columns, method [a]: pH 2.7, 0.1% formic acid in water / acetonitrile, linear gradient 10% to 95% acetonitrile
The entries below are paired with their reported log P.

Worked cases, log P given:
[[record]]
compound = "CC(NC(=O)C1(C)CC(c2ccc3ncc(Br)cc3c2)=NO1)c1ccncc1 (centres unmarked)"
observation_type = "log P"
experimental_value = "1.44[a]"

[[record]]
compound = "CC1(C(=O)NC2COC2)CC(c2ccc3ncc(Br)cc3c2)=NO1 (centres unmarked)"
observation_type = "log P"
experimental_value = "1.99^[a]"

[[record]]
compound = "C#Cc1cnc2ccc(C3=NOC(C)(C(=O)N(OC)C(C)CC)C3)cc2c1 (centres unmarked)"
observation_type = "log P"
experimental_value = "3.50[a]"


## Input Record request: log P value, item CC(C)NC(=O)C1(C)CC(c2ccc3nc(Cl)c(Br)cc3c2)=NO1 (centres unmarked)
## Output 3.46[a]

## Input Name the reported log P value associated with the compound CC(NC(=O)C1(C)CC(c2ccc3ncc(Br)cc3c2)=NO1)c1ccccc1Cl (centres unmarked)
## Output 3.85[a]

## Input I would be grateful if you could share the reported log P for CCC(C)N(OC)C(=O)C1(C)CC(c2ccc3ncc(Br)cc3c2)=NO1 (centres unmarked) .
## Output 3.96[a]

## Input Look up log P: COC1(C(=O)NCC2COC(C)(C)O2)CC(c2cc(Cl)c3ncc(Br)cc3c2)=NO1 (centres unmarked)
## Output 3.11[a]

## Input Tell me the measured log P of COc1cccc(CNC(=O)C2(C)CC(c3ccc4ncc(Br)cc4c3)=NO2)n1 (centres unmarked) , please.
## Output 3.11[a]
